System: Plasmodium berghei
Procedure Summary: Screen against P. berghei liver stage (PbLuc), transformed with Luciferase, at 10uM
Assay type: functional, HepG2
Protocol Conditions: tested at 10 uM
About 8,600 (12%) of roughly 69,000 compounds showed an effect of 50% or more. The sample holds strong results, similar compounds and a random draw of the others, so the mix is not that of the screen.
Parameter Measured: INHIBITION
Dear colleague, please send the value followed by its unit.

Reference set, count: 3
O=C1CC(c2ccncc2)C2(CCN(CCc3ccccc3)CC2)N1 (stereo not given)	90.8%
CC1CCC(NCCNC(=O)c2cccs2)CC1 (stereo not given)	5.11%
O=C(COCCOc1ccccc1)NC1CCN(C(=O)C2CC2)CC1	29.9%

stdin: Fill in: INHIBITION on Plasmodium berghei, entry COCCn1cc2c(n1)C(CNCc1nccs1)OCC2 (stereo not given)
stdout: 26.3%

stdin: Fill in: INHIBITION on Plasmodium berghei, entry "COCCN(Cc1sccc1C)C(=O)COc1cccnc1"
stdout: -32.6%

stdin: Fill in: INHIBITION on Plasmodium berghei, entry Cc1noc(C)c1C(=O)NCC(c1ccsc1)N(C)C (stereo not given)
stdout: -38.7%

* * *

Test system: Plasmodium berghei
Procedure Summary: Screen against P. berghei liver stage (PbLuc), transformed with Luciferase, at 10uM
Assay type: functional, HepG2
Protocol Conditions: tested at 10 uM
The campaign covered roughly 69,000 compounds. About 8,600 (12%) showed an effect of 50% or more. The sample holds strong results, similar compounds and a random draw of the others, so the mix is not that of the screen.
A collection of compounds and their measured INHIBITION
Dear colleague, please send the value followed by its unit.

Reference set, count: 4
c1csc(CN2CCO[C@@H]3CN(C4CCOCC4)C[C@@H]3C2)c1	64.4%
CCS(=O)(=O)N1C[C@@H]2CN(Cc3cccs3)CCO[C@@H]2C1	90.7%
COc1ccc(OC)c(C2CCN(C3CCN(C(C)=O)CC3)C2)c1 (stereo not given)	27.7%
O=S(=O)(C1CC1)N1C[C@@H]2CN(Cc3cccs3)CCO[C@@H]2C1	34.3%

stdin: // Input: "CCS(=O)(=O)N1C[C@@H]2CN(Cc3cnn(C)c3)CCO[C@@H]2C1" . Output its INHIBITION only.
stdout: -13%

* * *

Test system: Plasmodium berghei
Procedure Summary: Screen against P. berghei liver stage (PbLuc), transformed with Luciferase, at 10uM
Assay type: functional, HepG2
Protocol Conditions: tested at 10 uM
In all, about 69,000 compounds went through this assay and about 8,600 (12%) showed an effect of 50% or more. The entries come from a sample that favours strong results as a whole.
Parameter Measured: INHIBITION (%)
Return type: number; implicit unit %.

Reference set, count: 2
CCN(CC)S(=O)(=O)CC(=O)N1CCc2ccc(C)cc21	57.5
Cc1ccc(CNC(=O)CN2CCN(CC(O)c3ccco3)CC2)cc1 (stereo not drawn)	-1.58

stdin: // Input: CC1CN(Cc2noc(C3CC3)n2)CCN1Cc1noc(C2CC2)n1 (stereo not drawn) . Output its INHIBITION only.
stdout: 33.8

stdin: // Input: O=C(NCc1ccnc(OCC2CC2)c1)C1Cc2ccccc2O1 (stereo not drawn) . Output its INHIBITION only.
stdout: -39.6

stdin: // Input: "Cc1cc2c(=O)n3c(nc2s1)CCN(C(=O)c1sc(C)nc1C)CC3" . Output its INHIBITION only.
stdout: 80.9

stdin: // Input: CN1C(=O)C2(CCCN(C(=O)c3cccnc3O)C2)c2ccccc21 (stereo not drawn) . Output its INHIBITION only.
stdout: 7.25

stdin: // Input: Cc1ccc2c(c1)N(C(=O)C1CCCOC1)CCC2 (stereo not drawn) . Output its INHIBITION only.
stdout: -27

stdin: // Input: "CCN(CC)S(=O)(=O)CC(=O)N1CCc2ccc(Cl)cc21" . Output its INHIBITION only.
stdout: 26.8

stdin: // Input: O=C(NCCNS(=O)(=O)c1cccc(Cl)c1)C1CCCO1 (stereo not drawn) . Output its INHIBITION only.
stdout: 38.9

stdin: // Input: "CCOc1ccc(-n2nnc(C(=O)O)c2-c2ccccn2)cc1" . Output its INHIBITION only.
stdout: -31.6

stdin: // Input: "O=C(C1=CCCC1)N1CC[C@]2(C[C@H](OCc3cccnc3)CO2)C1" . Output its INHIBITION only.
stdout: 16.9

stdin: // Input: "Cc1noc([C@H]2C[C@H]3OCC[C@H]3N(Cc3ccc4c(c3)OCO4)C2)n1" . Output its INHIBITION only.
stdout: 17.6

stdin: // Input: "Cc1nc(C)c(C(=O)N2CCc3nc4sc(C)cc4c(=O)n3CC2)o1" . Output its INHIBITION only.
stdout: -12.9

stdin: // Input: "O=c1c(NCCc2ccc(O)cc2)c(NCc2ccncc2)c1=O" . Output its INHIBITION only.
stdout: 32.1

stdin: // Input: "Cc1cc2c(=O)n3c(nc2s1)CCN(C(=O)c1scnc1C)CC3" . Output its INHIBITION only.
stdout: 40.9

stdin: // Input: CC1CN(Cc2noc(C3CC3)n2)CCN1Cc1nccn1C (stereo not drawn) . Output its INHIBITION only.
stdout: 55.9

stdin: // Input: "CS(=O)(=O)c1ccc2c(c1)N(C(=O)Cc1ccc(F)cc1)CCC2" . Output its INHIBITION only.
stdout: 47.7

* * *

System: Plasmodium berghei
Procedure Summary: Screen against P. berghei liver stage (PbLuc), transformed with Luciferase, at 10uM
Format: functional, HepG2
Protocol Conditions: tested at 10 uM
Hit rate of the full screen: of about 69,000 compounds, about 8,600 (12%) showed an effect of 50% or more. This is one part of a sample in which strong results are shown more often than they occur.
A collection of compounds and their measured INHIBITION
Return type: number; implicit unit %.

Reference set, count: 4
Cc1cnn(CC2CCCCN2C(=O)c2ccc(NC3CC3)nc2)c1 (configuration not stated)	42.45
c1ccc(OC2COC3(CCN(CC4CC4)CC3)C2)nc1 (configuration not stated)	53.2
COC1COC2(CCN(Cc3ccc4ccccc4n3)CC2)C1 (configuration not stated)	57.4
COC1COC2(CCN(Cc3ccccc3C)CC2)C1 (configuration not stated)	37.1

stdin: // Input: "CCO[C@@H]1CO[C@@]2(CCN(Cc3ccc4c(c3)OCO4)C2)C1" . Output its INHIBITION only.
stdout: 18.6

stdin: // Input: "Cc1ccc(Cl)cc1-n1nnnc1C1(N2CCCC2)CCCCC1" . Output its INHIBITION only.
stdout: 63.9

stdin: // Input: "c1cc(-c2cnc(NC3CC3)nc2[C@@H]2CCCO2)ccn1" . Output its INHIBITION only.
stdout: 5.34

stdin: // Input: COc1ccc(C2CCCN2S(=O)(=O)N(C)C)cc1 (configuration not stated) . Output its INHIBITION only.
stdout: -45.2

stdin: // Input: "COCCN1CCC(CNc2nc3ccccc3o2)CC1" . Output its INHIBITION only.
stdout: 61

stdin: // Input: COC1COC2(CCN(Cc3ccccc3F)CC2)C1 (configuration not stated) . Output its INHIBITION only.
stdout: 3.25

stdin: // Input: "Cc1ccnc(OC[C@@]23CCO[C@@H]2CCN(c2ncc(F)cn2)C3)n1" . Output its INHIBITION only.
stdout: 16.9

stdin: // Input: "COCCN1CCC(CNc2cnc3ccccc3n2)CC1" . Output its INHIBITION only.
stdout: 46.1

* * *

System: Plasmodium berghei
Procedure Summary: Screen against P. berghei liver stage (PbLuc), transformed with Luciferase, at 10uM
Type: functional, HepG2
Protocol Conditions: tested at 10 uM
Among all 69,000 compounds or so, about 8,600 (12%) showed an effect of 50% or more. The sample holds strong results, similar compounds and a random draw of the others, so the mix is not that of the screen.
Assign class by INHIBITION: not lower than 20% means Satisfied; lower than 20% means Not satisfied.

Answered examples (6):
CCOCc1ccccc1NC(=O)NCC(C)(O)c1ccsc1 (centres undefined)	Not satisfied
CCS(=O)(=O)NC[C@]12COC[C@H]1CN(Cc1sccc1C)C2	Satisfied
COc1ccc(C(=O)NCC(c2cccn2C)N2CCCC2)cc1OC (centres undefined)	Satisfied
c1cncc(COCC2CN(Cc3cccnc3)Cc3ccnn3C2)c1 (centres undefined)	Not satisfied
CC(C)(N)C(=O)N1CCCC(c2cncc(Oc3cccnc3)n2)C1 (centres undefined)	Satisfied
CN1CCO[C@@H]2CN(S(=O)(=O)c3cccs3)CC[C@@H]2C1	Satisfied

stdin: Item "CN(C)C(=O)N1CCC2(CC1)CCN(c1ncccn1)C2" with INHIBITION of 20% or above?
stdout: Not satisfied

stdin: Item "CCS(=O)(=O)NC[C@]12COC[C@H]1CN(Cc1ccccn1)C2" with INHIBITION of 20% or above?
stdout: Not satisfied

stdin: Item CCN1CCCC(c2nc(O)c3cc(C)ccc3n2)C1 (centres undefined) with INHIBITION of 20% or above?
stdout: Not satisfied

stdin: Item Cn1cc(CN2CCC(F)(F)C3(CCN(c4cnccn4)C3)C2)cn1 (centres undefined) with INHIBITION of 20% or above?
stdout: Not satisfied
